# credit: patent US20250163056A1

molecules and their reported Photostability 4 hours
Assay: Photostability, percentage remaining undegraded under illumination or in the dark
Details: percentage remaining undegraded after 4 hours illumination

# MOLECULE, READOUT_QUALIFIER, Photostability 4 hours (%)
rows = [
    ("O=C1c2cc(C(F)(F)F)ccc2N=C2N(c3ccccc3)CC[C@@]12O [BPN-0025110]", "=", 6.6),
    ("Cc1cc2c(cc1C)C(=O)[C@]1(O)CCN(c3ccc4c(c3)NCCS4)C1=N2 [BPN-0028922]", "=", 86.1),
    ("Cc1ccc2c(c1)C(=O)[C@]1(O)CCN(c3ccc4nc(CO)ccc4c3)C1=N2 [BPN-0028554]", "=", 87.6),
    ("Cc1cc2c(cc1C)C(=O)[C@]1(O)CCN(c3cnc(CO)c(Cl)c3)C1=N2 [BPN-0028649]", "=", 96.7),
    ("Cc1cc2c(cc1C(F)(F)F)N=C1N(c3ccc(Cl)cc3)CC[C@@]1(O)C2=O [BPN-0027080]", "=", 98.1),
    ("Cc1cc2c(cc1C)C(=O)[C@]1(O)CCN(c3ccc(I)cc3)C1=N2 [BPN-0027109]", "=", 82.5),
    ("Cc1ccc2cc(N3CC[C@@]4(O)C(=O)c5cc(C)c(C)cc5N=C34)ccc2n1 [BPN-0027490]", "=", 80.8),
    ("Cc1cc2c(s1)C(=O)[C@]1(O)CCN(c3ccc4ncccc4c3)C1=N2 [BPN-0027181]", ">", 99),
    ("Cc1cccc(N2CC[C@@]3(O)C(=O)c4cc(C)ccc4N=C23)c1 [BPN-0025100]", "=", 82.8),
    ("Cc1cc2c(cc1C)C(=O)[C@]1(O)CCN(c3cnn(C)c3)C1=N2 [BPN-0026710]", "=", 6.6),
    ("COc1ncc(N2CC[C@@]3(O)C(=O)c4cc(C)c(C)cc4N=C23)cc1Cl [BPN-0028820]", "=", 80.9),
    ("Cc1cc2c(s1)N=C1N(c3cccc(Br)c3)CC[C@@]1(O)C2=O [BPN-0026624]", "=", 90.5),
    ("Cc1nc2ccc(N3CC[C@@]4(O)C(=O)c5cc(C)c(C)cc5N=C34)cc2o1 [BPN-0027213]", "=", 46.3),
    ("Cc1cc2c(cc1C)C(=O)[C@]1(O)CCN(c3ccc(C#N)cc3)C1=N2 [BPN-0026499]", "=", 97.7),
    ("Cc1cc2c(cc1F)C(=O)[C@]1(O)CCN(c3ccc4ncccc4c3)C1=N2 [BPN-0027197]", ">", 99),
    ("Cc1cc2c(cc1C)C(=O)[C@]1(O)CCN(c3cnc4c(c3)NCCO4)C1=N2 [BPN-0028734]", "=", 76),
    ("Cc1cc2c(s1)N=C1N(c3ccc4ncccc4c3)CC[C@@]1(O)C2=O [BPN-0027216]", "=", 97.2),
    ("Cc1cc2c(cc1C)C(=O)[C@]1(O)CCN(c3cnc(CO)c(C)c3)C1=N2 [BPN-0028733]", "=", 82.1),
    ("Cn1ncc2c1N=C1N(c3ccccc3)CC[C@@]1(O)C2=O [BPN-0027159]", "=", 89.9),
    ("Cc1ccc(N2CC[C@@]3(O)C(=O)c4cc(F)c(C)cc4N=C23)cc1 [BPN-0026579]", "=", 77.3),
    ("Cc1ccc2c(c1)C(=O)[C@@]1(O)C(=N2)N(c2ccccc2)CC1(C)C [BPN-0026282]", "=", 64.0),
    ("Cc1cc2c(cc1C)C(=O)[C@]1(O)CCN(c3ccc4nc(N)ccc4c3)C1=N2 [BPN-0028899]", "=", 70.8),
    ("Cc1cc2c(cc1C)C(=O)[C@]1(O)CCN(c3ccc4c(c3)COCCN4)C1=N2 [BPN-0028758]", "=", 90.9),
    ("Cc1ncc(N2CC[C@@]3(O)C(=O)c4cc(F)c(C(F)(F)F)cc4N=C23)s1 [BPN-0026667]", "=", 85.7),
]
